ASSAY METHOD TEXT: Inhibition of Bacillus stearothermophilus alpha glucosidase
Parameters: species or system Geobacillus stearothermophilus
pIC50: −log10 of the molar value.
PROPERTY LABEL: pIC50

1 = OC[C@@H]1[C@@H](O)[C@H](O)[C@@H](O)CN1CCCCOc1cccc(-c2cnn[nH]2)c1
2 = OC[C@@H]1[C@@H](O)[C@H](O)[C@@H](O)CN1CCCCCCOc1cccc(-c2cnn[nH]2)c1
Query string: Kindly identify which of 1 and 2 has the larger recorded pIC50 value. # reply format: chosen label
Result string: 2
(2: 5.62, 1: 5.22)

---

System: BAEC
ASSAY METHOD TEXT: Inhibition of angiogenesis in BAEC assessed as inhibition of endothelial tube formation at 0.2 mM after 24 hrs
Type: functional
RECORDED CONDITIONS: Bos taurus
The source made the active and inactive calls. The rule behind the calls is not given here.
PROPERTY LABEL: Activity

- LINE NOTATION: "OC[C@@H]1[C@@H](O)[C@H](O)[C@@H](O)CN1CCCCCCOc1cccc(-c2cnn[nH]2)c1"
  EXPERIMENTAL RESULT: "inactive"
- LINE NOTATION: "OC[C@H]1NC[C@H](O)[C@@H](O)[C@@H]1O"
  EXPERIMENTAL RESULT: "inactive"
- LINE NOTATION: "COc1cccc(-c2cnn[nH]2)c1"
  EXPERIMENTAL RESULT: "inactive"
- LINE NOTATION: "OC[C@@H]1[C@@H](O)[C@H](O)[C@@H](O)CN1CCCCOc1cccc(-c2cnn[nH]2)c1"
  EXPERIMENTAL RESULT: "inactive"
